# assaySystem: T1, full-length human 14-3-3η fused to the C terminus of MBP (human, UniProt Q04917 1-246)
# T1 chain: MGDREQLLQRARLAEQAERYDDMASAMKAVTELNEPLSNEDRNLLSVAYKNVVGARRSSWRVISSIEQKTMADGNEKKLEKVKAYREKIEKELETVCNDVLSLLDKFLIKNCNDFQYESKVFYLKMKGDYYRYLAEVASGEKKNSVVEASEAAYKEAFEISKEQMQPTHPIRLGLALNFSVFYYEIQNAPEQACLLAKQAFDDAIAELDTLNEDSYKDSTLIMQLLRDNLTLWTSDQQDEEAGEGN
# runDescription: FP
Non-standard residues stand in square brackets, D forms with d. No end group written: not given here. *: point of attachment. Biotin = O=C1N[C@H]2[C@H](CS[C@H]2CCCCC(=O)*)N1; pT = C[C@@H](OP(=O)(O)O)[C@H](N)C(=O)O; ttds = NCCCOCCOCCOCCCNC(=O)CCC(=O)*
Give measured Kd for each item. Keep answers brief.
# value in µM; strip the unit string

Requested field: Kd. Item: {Biotin-ttds}-SSRTRRE[pT]QL [HPV16 E6 phospho-PBM peptide p16E6]
80.5

Now consider {Biotin-ttds}-RLQRRRE[pT]QV [HPV18 E6 phospho-PBM peptide p18E6] and answer again.
23.6

Follow-up item: {Biotin-ttds}-RRVRKLPST[pT]L [RSK1 phospho-PBM peptide RSK1_-1P]
0.5

Please answer likewise for {Biotin-ttds}-RRVRKLPS[pT]TL [RSK1 phospho-PBM peptide RSK1_-2P]
0.7

Values compiled from paper PMC7961048.
